- System name: HLA-B*15:01
- Protocol details: IEDB peptide-MHC binding, purified MHC/competitive/radioactivity; filed as Kd, often an IC50 or EC50 that approximates it; bounds were set here for any values at or beyond the usual limits of such assays
- Reported conditions: source organism: Dengue virus 2 Jamaica/1409/1983
Below, each entry is listed with its recorded pKd.
Field pKd (float): negative decimal logarithm of the concentration in molar.

Use these answered entries as a reference point.
TLITGNMSF : 7.04
VSKKEGGAMY : 7.07

Next sequence, please.
// query Using the record for TIMAAILAY , report its pKd.
// result 7.13

====

- System name: HLA-B*08:01
- Protocol details: IEDB peptide-MHC binding, purified MHC/direct/fluorescence; filed as Kd, often an IC50 or EC50 that approximates it; bounds were set here for any values at or beyond the usual limits of such assays
- Reported conditions: source organism: Vibrio cholerae
Property: pKd
Field pKd (float): negative decimal logarithm of the concentration in molar.

// query Using the record for MMFDAMGAL , report its pKd.
// result 5.24
